TARGET OR TEST SYSTEM: T1, recombinant human domain 1-3His6 of the cation-independent mannose-6-phosphate receptor (human, UniProt P11717 41-467)
T1 construct: Biotinylated (NHS-PEG4-biotin) for BLI; Glycosylated; also called hDom1-3His6; hCI-M6PRD1-D3
PROTOCOL: BLI at pH 7.4, 1st of 2 repeats
MEASURED PROPERTY: koff (s⁻¹)

Check out these entries, answers already filled in.
{"BINDER": "anti-CI-M6PR VHH10 (VHH, His6-tagged; made in Pichia pastoris) VHH: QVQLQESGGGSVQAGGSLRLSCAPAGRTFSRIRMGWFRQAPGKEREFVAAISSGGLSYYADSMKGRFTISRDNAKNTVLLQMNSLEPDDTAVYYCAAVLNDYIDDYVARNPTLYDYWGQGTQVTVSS", "MEASURE UNIT": "s⁻¹", "OBSERVED RESULT": 0.00177}
{"BINDER": "anti-CI-M6PR VHH5 (VHH, His6-tagged; made in Pichia pastoris, later also in E. coli WK6) VHH: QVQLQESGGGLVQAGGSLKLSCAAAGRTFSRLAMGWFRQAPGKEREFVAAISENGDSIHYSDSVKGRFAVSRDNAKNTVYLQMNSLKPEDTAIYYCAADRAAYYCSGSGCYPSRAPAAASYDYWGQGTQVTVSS", "MEASURE UNIT": "s⁻¹", "OBSERVED RESULT": 0.000124}

(A) anti-CI-M6PR VHH9 (VHH, His6-tagged; made in Pichia pastoris) VHH: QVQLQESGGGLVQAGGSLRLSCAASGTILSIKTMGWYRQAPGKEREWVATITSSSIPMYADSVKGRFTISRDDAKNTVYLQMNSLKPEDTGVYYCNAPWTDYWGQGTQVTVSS
(B) anti-CI-M6PR VHH7 (VHH, His6-tagged (Pichia pastoris)) VHH: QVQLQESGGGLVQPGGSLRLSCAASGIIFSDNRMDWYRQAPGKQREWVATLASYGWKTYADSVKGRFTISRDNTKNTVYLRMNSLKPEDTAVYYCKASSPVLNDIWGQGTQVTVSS
(C) anti-CI-M6PR VHH8 (VHH, His6-tagged (Pichia pastoris)) VHH: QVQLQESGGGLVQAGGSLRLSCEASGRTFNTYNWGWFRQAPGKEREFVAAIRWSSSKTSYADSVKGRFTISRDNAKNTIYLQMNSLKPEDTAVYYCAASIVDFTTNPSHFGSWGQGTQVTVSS
(D) anti-CI-M6PR VHH2 (VHH, His6-tagged; made in Pichia pastoris) VHH: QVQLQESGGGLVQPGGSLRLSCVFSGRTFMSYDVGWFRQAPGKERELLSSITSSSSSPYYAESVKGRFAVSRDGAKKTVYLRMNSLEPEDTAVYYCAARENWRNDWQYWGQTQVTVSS
Exercise: I would appreciate it if you could sort these 4 binders by koff, starting from the smallest number. Put the labels in the requested order and list them out.
Key: A, C, D, B
